# tested.on: EGFR (Human), P00533 [T790M/L858R]
# Sequence (P00533 whole entry T790M/L858R, looked up): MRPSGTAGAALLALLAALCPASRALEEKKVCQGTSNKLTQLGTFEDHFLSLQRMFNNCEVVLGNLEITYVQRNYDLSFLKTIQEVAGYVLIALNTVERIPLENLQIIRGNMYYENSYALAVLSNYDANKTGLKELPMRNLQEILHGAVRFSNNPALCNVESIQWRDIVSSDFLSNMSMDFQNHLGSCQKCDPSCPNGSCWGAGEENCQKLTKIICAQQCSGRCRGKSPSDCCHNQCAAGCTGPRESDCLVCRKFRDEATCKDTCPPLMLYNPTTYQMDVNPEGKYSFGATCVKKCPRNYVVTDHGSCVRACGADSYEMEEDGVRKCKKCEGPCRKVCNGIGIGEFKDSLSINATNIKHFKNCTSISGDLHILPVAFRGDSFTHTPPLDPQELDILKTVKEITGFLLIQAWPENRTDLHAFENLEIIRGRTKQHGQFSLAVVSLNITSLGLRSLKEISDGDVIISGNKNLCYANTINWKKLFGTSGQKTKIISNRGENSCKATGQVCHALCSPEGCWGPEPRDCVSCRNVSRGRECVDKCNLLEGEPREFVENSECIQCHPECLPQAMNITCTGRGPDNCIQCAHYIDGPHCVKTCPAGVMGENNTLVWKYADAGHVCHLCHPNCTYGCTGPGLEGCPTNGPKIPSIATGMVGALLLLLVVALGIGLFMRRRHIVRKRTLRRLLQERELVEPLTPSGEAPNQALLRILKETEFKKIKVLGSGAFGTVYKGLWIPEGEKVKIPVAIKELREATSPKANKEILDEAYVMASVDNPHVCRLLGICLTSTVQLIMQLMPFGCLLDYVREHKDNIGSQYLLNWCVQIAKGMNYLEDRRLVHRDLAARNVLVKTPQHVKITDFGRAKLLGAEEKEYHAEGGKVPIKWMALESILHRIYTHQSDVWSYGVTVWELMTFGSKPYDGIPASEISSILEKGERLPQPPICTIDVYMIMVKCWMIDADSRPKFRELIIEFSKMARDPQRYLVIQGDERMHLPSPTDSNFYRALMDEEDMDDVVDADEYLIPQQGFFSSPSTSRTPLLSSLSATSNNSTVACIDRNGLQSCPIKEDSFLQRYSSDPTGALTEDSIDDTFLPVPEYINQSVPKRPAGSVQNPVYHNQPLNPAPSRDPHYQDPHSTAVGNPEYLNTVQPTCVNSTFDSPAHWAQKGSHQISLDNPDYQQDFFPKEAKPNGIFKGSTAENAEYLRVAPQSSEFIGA
# assay.info: Cell-Based Assay
# measurement.context: h1975
Checkbox rule: IC50 lower than 0.02 µM = criterion met; IC50 not lower than 0.02 µM = criterion not met.

>>> print(df.to_string())
                               record_smiles                           tested_on     classification
 0  C=CC(=O)Nc1cccc(-n2c(=O)cc(C)c3cnc(Nc4ccc(N(C)CCN(C)C)cc4Cl)nc32)c1  EGFR (Human), P00533 [T790M/L858R]      criterion met
 1  C=CC(=O)Nc1cccc(-n2c(=O)c(OC)c(C)c3cnc(Nc4ccc(N5CCN(C)CC5)cc4OC)nc32)c1  EGFR (Human), P00533 [T790M/L858R]      criterion met
 2  C=CC(=O)Nc1cccc(-n2c(=O)cc(C)c3cnc(Nc4ccc(OCCN(C)C)cc4OC)nc32)c1  EGFR (Human), P00533 [T790M/L858R]      criterion met
 3  C=CC(=O)Nc1cccc(-n2c(=O)cc(C)c3cnc(Nc4ccc(N(C)CCN5CCCC5)cc4OC)nc32)c1  EGFR (Human), P00533 [T790M/L858R]  criterion not met
 4  C=CC(=O)Nc1cccc(-n2c(=O)cc(C)c3cnc(Nc4cn(C)nc4C)nc32)c1  EGFR (Human), P00533 [T790M/L858R]      criterion met
 5  C=CC(=O)Nc1cccc(-n2c(=O)cc(C)c3cnc(Nc4ccc(N5CCN(C)CC5)c(F)c4)nc32)c1  EGFR (Human), P00533 [T790M/L858R]  criterion not met
 6  C=CC(=O)Nc1cccc(-n2c(=O)cc(C)c3cnc(Nc4ccc(OCCN(C)C)cc4Cl)nc32)c1  EGFR (Human), P00533 [T790M/L858R]      criterion met
 7  C=CC(=O)Nc1cccc(-n2c(=O)cc(C)c3cnc(Nc4cnn(C)c4)nc32)c1  EGFR (Human), P00533 [T790M/L858R]  criterion not met
 8  C=CC(=O)Nc1cccc(-n2c(=O)cc(C)c3cnc(Nc4cn([C@H]5CCN(C)C5)nc4C)nc32)c1  EGFR (Human), P00533 [T790M/L858R]      criterion met
 9  C=CC(=O)Nc1cccc(-n2c(=O)cc(C)c3cnc(Nc4ccc(OCCOC)cc4)nc32)c1  EGFR (Human), P00533 [T790M/L858R]  criterion not met
10  C=CC(=O)Nc1cccc(-n2c(=O)cc(C)c3cnc(Nc4cc(C)nn4C)nc32)c1  EGFR (Human), P00533 [T790M/L858R]  criterion not met
11  C=CC(=O)Nc1cccc(-n2c(=O)cc(C)c3cnc(Nc4ccc(N5CCN(C(C)=O)CC5)cc4Cl)nc32)c1  EGFR (Human), P00533 [T790M/L858R]      criterion met
12  C=CC(=O)Nc1cccc(-n2c(=O)cc(C)c3cnc(Nc4cn(C)nc4Cl)nc32)c1  EGFR (Human), P00533 [T790M/L858R]      criterion met
13  C=CC(=O)Nc1cccc(-n2c(=O)cc(C)c3cnc(Nc4ccc(N(C)CCN(C)C)cc4OC(F)F)nc32)c1  EGFR (Human), P00533 [T790M/L858R]  criterion not met
14  C=CC(=O)Nc1cccc(-n2c(=O)cc(C)c3cnc(Nc4ccc(OCCN(C)C)cc4)nc32)c1  EGFR (Human), P00533 [T790M/L858R]      criterion met
15  C=CC(=O)Nc1cccc(-n2c(=O)c(Cc3ccccc3)cc3cnc(Nc4ccc(N5CCN(C)CC5)cc4OC)nc32)c1  EGFR (Human), P00533 [T790M/L858R]      criterion met
16  C=CC(=O)Nc1cccc(-n2c(=O)cc(C)c3cnc(Nc4ccc(OCCN(C)C)cc4F)nc32)c1  EGFR (Human), P00533 [T790M/L858R]  criterion not met
